meta.source: paper PMC10711565

target: PCBP2 (UniProt Q15366 1-365); test: fluorescence anisotropy
Sequence (Q15366 whole entry): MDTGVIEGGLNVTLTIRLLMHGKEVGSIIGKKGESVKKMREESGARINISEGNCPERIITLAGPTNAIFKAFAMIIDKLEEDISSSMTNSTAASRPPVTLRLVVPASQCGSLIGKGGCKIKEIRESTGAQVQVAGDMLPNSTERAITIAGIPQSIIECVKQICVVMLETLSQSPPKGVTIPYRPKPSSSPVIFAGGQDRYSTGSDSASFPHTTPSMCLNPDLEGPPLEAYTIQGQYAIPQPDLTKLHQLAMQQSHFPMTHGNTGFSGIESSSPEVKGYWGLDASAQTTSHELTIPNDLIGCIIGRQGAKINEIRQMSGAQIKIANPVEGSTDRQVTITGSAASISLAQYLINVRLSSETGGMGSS
pKd: −log10 of the molar value.

# Binder, pKd
data = [
    ("HCV45:miR-122 complex (structured_RNA) RNA 1: GCCAGCCCCCUGAUGGGGGCGACACUCCACCAUGAAUCACUCCCC RNA 2: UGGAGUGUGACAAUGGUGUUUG", 5.01),
]
